Data origin: the supplement of paper PMC8728848

TEST_SYSTEM: Fuc(a1-3)[Gal(b1-4)]GlcNAc(b1-2)Man(a1-3)[Fuc(a1-3)[Gal(b1-4)]GlcNAc(b1-2)Man(a1-6)]Man(b1-4)GlcNAc(b1-4)[Fuc(a1-6)]GlcNAc
TEST_PROTOCOL: glycan array binding signal (z-score within array); higher = stronger binding
MEASUREMENT_CONDITIONS: glycan notation: IUPAC condensed, linker removed
The full list was thinned out, with the strongest signals kept by preference.
ASSAY_METRIC: glycan array binding signal (z-score)
Answer with a number only.

RVL (Remusatia vivipara), B5LYJ9 (protein) MAKLLLFLLPAILGLLVPRSAVALGTNYLLSGQTLDTEGHLKNGDFDLVMQDDCNLVLYNGNWQSNTANNGRDCKLTLTDYGELVIKNGDGSTVWKSGAQSVKGNYAAVVHPDGRLVVLGPSVFKIDPWVRGLNSLRFRNIPFTNNLLFSGQVLYGDGRLTAKNHQLVMQGDCNLVLYGGKYGWQSNTHGNGEHCFLRLNHKGELIIKDDDFKTIWSSRSSSKQGEYVLILQDDGFGVIYGPAIFETSSKRSIAAS = 0.076

Intelectin 1 (Homo sapiens), Q8WWA0 (protein) MNQLSFLLFLIATTRGWSTDEANTYFKEWTCSSSPSLPRSCKEIKDECPSAFDGLYFLRTENGVIYQTFCDMTSGGGGWTLVASVHENDMRGKCTVGDRWSSQQGSKAVYPEGDGNWANYNTFGSAEAATSDDYKNPGYYDIQAKDLGIWHVPNKSPMQHWRNSSLLRYRTDTGFLQTLGHNLFGIYQKYPVKYGEGKCWTDNGPVIPVVYDFGDAQKTASYYSPYGQREFTAGFVQFRVFNNERAANALCAGMRVTGCNTEHHCIGGGGYFPEASPQQCGDFSGFDWSGYGTHVGYSSSREITEAAVLLFYR has a reported glycan array binding signal (z-score) of 0.394

Recorded result, B936 (Bifidobacterium sp) (protein) MKNWKKAIALVASAAALVSVAACGPSNAGGSSDSGKKTVGFVAVGPEGGFRTANEKDIQKAFEDAGFDLTYSPTQNNDQQKQIQAFNKFVNDEVDAIILSSTEDSGWDDSLKKAAEAEIPVFTVDRNVDVKDAEAKKAIVAHIGPSNVWCGEQAAEFVNKNFPDGANGFILEGPAGLSVVKDRGTGWGNKVASNVKVLESQSANWSTDEAKTVTAGLLDKYKSDNPQFIFAQNDEMGLGAAQAVDAAGLKGKVKIITIDGTKNALQALVDGDLSYVIEYNPIFGKETAQAVKDYLDGKTVEKDIEIESKTFDAASAKEALDNNTRAY , glycan array binding signal (z-score): 0.198

The reported value for SP15308C-bot-338-23-338 (Bacteroides ovatus) (protein) DEWTDEQFKQLISFKTQPGGWGVTDVHVRYANSAKYTYNLPVLVSGSTDNTDDRLVSFSLRDDTLDILNFEKFGNRPELYFRELPQKYYSFPKELTIPAGQSHALLPIEFSLDGLDDSQKWALPLKVCEDANGTYAVNPRKYYRTAVLRPILFNEFSGRFSGSSLLGTMAGESDIKFSSTEIKLNVVTDSIVFFYAGQRTEDYEDRINYKVFLQFTGDKVDSKKDLYKMKIWAENEKLKFNSYSTPTYKVSSEMDATKTYLKHTYIVISDIDFDFVDYTSVPNYEIEYNMKGGLSVSRDLDTRKPDEDQGSDSKWW in terms of glycan array binding signal (z-score) is 2.11
